Tested on: DeltatarO mutant
experiment description: S. aureus survival, RN4220 and DeltatarO strains – OD600, teichoic acid synthesis inhibitors, primary screen (AID 463173)
measurement parameters: S. aureus RN4220 wild type/DeltatarO growth, OD600, 18 h, stronger effect = lower value, screened at 18.75 µg/mL (by protocol)
Screen size: about 52,000 compounds; about 4,300 (8.3%) were called active. Only a selection was taken, and actives are over-represented in it overall.
Classification scheme (survival): I = under 70%, II = from 70% up to 90%, III = 90% and over

Prompt: Please report the category associated with COc1ccc(-n2nc(C(=O)Nc3ccc(Br)cc3C)c3c4ccccc4n(C)c3c2=O)cc1 , nothing else.
Completion: III

Prompt: Please report the category associated with O=C(NCCc1nc2ccccc2n1Cc1ccccc1)c1ccco1 , nothing else.
Completion: III

Prompt: Please report the category associated with O=C(Nc1ccc(F)cc1)Nc1ccc2snnc2c1 , nothing else.
Completion: I

Prompt: Please report the category associated with CCCCOc1cccc(C(=O)Nc2ccc3oc(-c4cccnc4)nc3c2)c1 , nothing else.
Completion: I

Prompt: Please report the category associated with Cc1cccc(N2C(=O)C(CC(=O)Nc3ccc(F)cc3)N(C3CCCC3)C2=O)c1 (stereo unspecified) , nothing else.
Completion: III

Prompt: Please report the category associated with COc1ccc(-c2noc(CN(C(=O)Cc3ccc(C)cc3)C(C)C)n2)cc1 , nothing else.
Completion: I

Prompt: Please report the category associated with CCOCCCNC(=O)C(=O)Nc1c2c(nn1-c1ccc(OC)cc1)CSC2 , nothing else.
Completion: II

Prompt: Please report the category associated with COC(=O)c1cc(-c2cocc2C=C(C#N)C#N)ccc1Cl , nothing else.
Completion: II

Prompt: Please report the category associated with Cc1ccc(-c2nc(-c3cc4cccc(OCc5ccccc5F)c4oc3=O)no2)cc1 , nothing else.
Completion: I

Prompt: Please report the category associated with Cc1nnc(N2CCCC(C(=O)NCCc3ccccc3)C2)c2nn(-c3ccccc3)c(C)c12 (stereo unspecified) , nothing else.
Completion: III

Prompt: Please report the category associated with COc1ccc(-c2noc(CN(C(=O)c3ccc(C)cc3C)C(C)C)n2)cc1 , nothing else.
Completion: I

Prompt: Please report the category associated with O=S(=O)(c1ccccc1)c1nc(-c2cccc(Cl)c2)oc1NCc1ccccc1 , nothing else.
Completion: II

Prompt: Please report the category associated with COc1cc(Cl)c(NS(=O)(=O)c2ccc3[nH]c(=O)ccc3c2)c(OC)c1 , nothing else.
Completion: III

Prompt: Please report the category associated with O=C(Nc1cccc(C(F)(F)F)c1)Nc1ccc2snnc2c1 , nothing else.
Completion: I

Prompt: Please report the category associated with CCOc1cccc(C(=O)Nc2ccc3oc(-c4ccc(C(C)(C)C)cc4)nc3c2)c1 , nothing else.
Completion: I

Prompt: Please report the category associated with O=C(NCCc1nc2ccccc2n1Cc1ccc(Cl)cc1Cl)c1ccco1 , nothing else.
Completion: I

Prompt: Please report the category associated with CCOc1ccc(C(=O)Nc2ccc3oc(-c4ccc5ccccc5c4)nc3c2)cc1 , nothing else.
Completion: II

Prompt: Please report the category associated with CCOc1ccc(C(=O)Nc2ccc3oc(-c4cccc5ccccc45)nc3c2)cc1 , nothing else.
Completion: I

Prompt: Please report the category associated with O=C(NCCCc1nc2ccccc2n1Cc1cccc(Cl)c1)c1ccco1 , nothing else.
Completion: I

Prompt: Please report the category associated with COc1ccc(-c2noc(CN(C(=O)c3cc(OC)c(OC)cc3OC)C(C)C)n2)cc1 , nothing else.
Completion: II

Prompt: Please report the category associated with O=C(NCCc1ccc(Cl)cc1)c1ccc(CSCc2ccc(Cl)cc2)o1 , nothing else.
Completion: II

Prompt: Please report the category associated with COc1ccc(-c2noc(CCC(=O)NCc3ccc(C)cc3)n2)cc1 , nothing else.
Completion: III

Prompt: Please report the category associated with CN1C(C(=O)Nc2cccc(O)c2)=CC(c2cccs2)=NS1(=O)=O , nothing else.
Completion: II

Prompt: Please report the category associated with CCc1ccc(N2C(=O)CSC23C(=O)N(Cc2cccc(F)c2)c2ccccc23)cc1 (stereo unspecified) , nothing else.
Completion: III

Prompt: Please report the category associated with CS(=O)(=O)N1CCC(c2nc(-c3ccc(S(=O)(=O)NCC4CCCO4)cc3)no2)CC1 (stereo unspecified) , nothing else.
Completion: II

Prompt: Please report the category associated with O=C1Nc2ccc(S(=O)(=O)Nc3ccccc3O)c3cccc1c23 , nothing else.
Completion: I

Prompt: Please report the category associated with COc1ccc(-c2noc(CN(C(=O)C(C)Oc3ccc(C)cc3)C(C)C)n2)cc1 (stereo unspecified) , nothing else.
Completion: I

Prompt: Please report the category associated with Cn1c(=O)c2c(n3ncnc13)NC(=O)CC2c1cccc(F)c1 (stereo unspecified) , nothing else.
Completion: I

Prompt: Please report the category associated with Cc1cc(C)cc(-n2c(SCC(=O)N3CCCCCC3)nc3c([nH]c4ccccc43)c2=O)c1 , nothing else.
Completion: III

Prompt: Please report the category associated with CCCCOC(=O)c1ccc(NC(=O)c2ccc3c(c2)CCCN3S(C)(=O)=O)cc1 , nothing else.
Completion: III

Prompt: Please report the category associated with CCOc1ccccc1CNC(=O)CN1C(=O)C2CCCCN2c2ccc(C(=O)N(C)C)cc21 (stereo unspecified) , nothing else.
Completion: III

Prompt: Please report the category associated with Cc1ccc(Cn2c(CCCNC(=O)c3ccco3)nc3ccccc32)cc1 , nothing else.
Completion: II

Prompt: Please report the category associated with COC(=O)c1c(Oc2ccc(Br)cc2)nnc(-c2ccccc2)c1-c1ccccc1 , nothing else.
Completion: II

Prompt: Please report the category associated with Cc1cc(C)c(NC(=O)C(C)n2nc(-c3ccc(C)c(C)c3)ccc2=O)c(C)c1 (stereo unspecified) , nothing else.
Completion: I
